Tested on: HCoV-OC43
Test: Antiviral CPE reduction assay, HCoV-OC43 in HEL299 cells
Assay type: cell-based, human coronavirus OC43
Settings: Betacoronavirus 1, OC43, HEL 299, MTS, mean ± SD of two or three independent experiments
Catalogue of compounds with associated EC50

In the examples that follow, each entry is paired with its recorded EC50.
Documented EC50 of CCN(CC)CCNc1ncc2c(Nc3cccnc3)ncnc2n1 [Compound 7l] : > 50 µM

Documented EC50 of C=CC(=O)Nc1cccc(Oc2nc(Nc3ccc(N4CCN(C)CC4)cc3OC)ncc2Cl)c1 [WZ4002, reference compound] : > 100 µM

Documented EC50 of NC(=O)c1ncn([C@@H]2O[C@H](CO)[C@@H](O)[C@H]2O)n1 [Ribavirin, ribavirin, reference compound] : 100 µM

Note: attention shifts to another entry.
Documented EC50 of c1cc2c(c(Nc3ncnc4nc(NC5CC5)ncc34)c1)CCC2 [Compound 7g] : > 50 µM

###

Test system: influenza A/H1N1 (A/Ned/378/05)
Experiment: Antiviral CPE reduction assay, influenza A/H1N1 in MDCK cells
Assay type: cell-based, influenza A virus
Details: Influenza A virus, H1N1; MDCK cells; CPE reduction, MTS; mean ± SD of two or three independent experiments; read-out: Antiviral Activity (EC50) Influenza H1N1
assay-readout: EC50

In the examples that follow, each entry is paired with its recorded EC50.
Documented EC50 of CN(C)CCNc1ncc2c(Nc3cccc4c3CCC4)ncnc2n1 [Compound 7e] : > 50 µM

Documented EC50 of C#Cc1cccc(Nc2ncnc3cc(OCCOC)c(OCCOC)cc23)c1 [Erlotinib, erlotinib, reference compound] : > 100 µM

Documented EC50 of c1cc2c(c(Nc3ncnc4nc(NC5CC5)ncc34)c1)CCCC2 [Compound 7c] : > 50 µM

Documented EC50 of CN(C)CCNc1ncc2c(Nc3cccc4c3CCCC4)ncnc2n1 [Compound 7a] : > 50 µM

Documented EC50 of CCN(CC)CCNc1ncc2c(Nc3cccc4c3CCCC4)ncnc2n1 [Compound 7b] : > 50 µM

New cases:
Documented EC50 of C#Cc1cccc(Nc2ncnc3nc(N4CCN(C)CC4)ncc23)c1 [Compound 7h] : > 50 µM

Documented EC50 of C#Cc1cccc(Nc2ncnc3nc(NCCN(CC)CC)ncc23)c1 [Compound 7i] : > 50 µM

###

Experiment: in vitro
Settings: human
Catalogue of compounds with associated CC50

In the examples that follow, each entry is paired with its recorded CC50.
Documented CC50 of c1cc2c(c(Nc3ncnc4nc(NC5CC5)ncc34)c1)CCC2 : > 50 µM

Documented CC50 of CCN(CC)CCNc1ncc2c(Nc3cccnc3)ncnc2n1 : > 50 µM

Documented CC50 of C#Cc1cccc(Nc2ncnc3cc(OCCOC)c(OCCOC)cc23)c1 [Erlotinib, erlotinib, reference compound] : > 100 µM

New cases:
Documented CC50 of c1cncc(Nc2ncnc3nc(NC4CC4)ncc23)c1 : > 50 µM

Documented CC50 of CN1CCN(c2ncc3c(Nc4cccc5c4CCC5)ncnc3n2)CC1 : > 50 µM

###

System: HEL299 cells
assay-readout: CC50 (µM)
Just the number please, in µM, no unit attached.

So the reported CC50 for C=CC(=O)Nc1cccc(Nc2nc(Nc3ccc(NC4CN(CCF)C4)cc3OC)ncc2C(F)(F)F)c1 [CNX-2006, reference compound] , on HEL299 cells, turned out to be 11.1

###

System: DND-41 (acute lymphoblastic leukemia)
Experiment: MTS proliferation assay, DND-41
Details: Homo sapiens, DND41, 72 h, read-out: Anti-Proliferative Activity (IC50) DND-41
pIC50: −log10 of the molar value.
assay-readout: pIC50

In the examples that follow, each entry is paired with its recorded pIC50.
Documented pIC50 of c1cc2c(c(Nc3ncnc4nc(NC5CC5)ncc34)c1)CCCC2 : < 4.00

Documented pIC50 of C#Cc1cccc(Nc2ncnc3cc(OCCOC)c(OCCO)cc23)c1 [OSI-420, reference compound] : < 4.00

Documented pIC50 of CCN(CC)CCNc1ncc2c(Nc3cccc4c3CCCC4)ncnc2n1 : 4.17

Documented pIC50 of CCN(CC)CCNc1ncc2c(Nc3cccc4c3CCC4)ncnc2n1 : < 4.00

Documented pIC50 of COc1cc([C@@H]2c3cc4c(cc3[C@@H](O[C@@H]3O[C@@H]5CO[C@@H](C)O[C@H]5[C@H](O)[C@H]3O)[C@H]3COC(=O)[C@H]23)OCO4)cc(OC)c1O [Etoposide, etoposide, reference compound] : 7.00

Documented pIC50 of c1cncc(Nc2ncnc3nc(NC4CC4)ncc23)c1 : < 4.00

Documented pIC50 of C=CC(=O)Nc1cccc(Oc2nc(Nc3ccc(N4CCN(C)CC4)cc3OC)ncc2Cl)c1 [WZ4002, reference compound] : < 4.00

Documented pIC50 of C#Cc1cccc(Nc2ncnc3cc4c(cc23)OCCOCCOCCO4)c1 [Icotinib, icotinib, reference compound] : < 4.00

Documented pIC50 of C#Cc1cccc(Nc2ncnc3nc(NC4CC4)ncc23)c1 : < 4.00

Documented pIC50 of C#Cc1cccc(Nc2ncnc3nc(N4CCN(C)CC4)ncc23)c1 : 4.18

New cases:
Documented pIC50 of CN1CCN(c2ncc3c(Nc4cccc5c4CCC5)ncnc3n2)CC1 : 4.09

Documented pIC50 of CN(C)CCNc1ncc2c(Nc3cccc4c3CCC4)ncnc2n1 : < 4.00

Documented pIC50 of c1cc2c(c(Nc3ncnc4nc(NC5CC5)ncc34)c1)CCC2 : < 4.00

Documented pIC50 of CCN(CC)CCNc1ncc2c(Nc3cccnc3)ncnc2n1 : < 4.00

###

Experiment: in vitro
Details: human
Catalogue of compounds with associated CC50

In the examples that follow, each entry is paired with its recorded CC50.
Documented CC50 of CCN(CC)CCNc1ncc2c(Nc3cccc4c3CCCC4)ncnc2n1 : > 50 µM

Documented CC50 of C#Cc1cccc(Nc2ncnc3cc4c(cc23)OCCOCCOCCO4)c1 [Icotinib, icotinib, reference compound] : > 100 µM

Documented CC50 of CN(C)CCNc1ncc2c(Nc3cccc4c3CCC4)ncnc2n1 : > 50 µM

Documented CC50 of CCN(CC)CCNc1ncc2c(Nc3cccnc3)ncnc2n1 : > 50 µM

Documented CC50 of c1cncc(Nc2ncnc3nc(NC4CC4)ncc23)c1 : > 50 µM

Note: attention shifts to another entry.
Documented CC50 of CN1CCN(c2ncc3c(Nc4cccc5c4CCC5)ncnc3n2)CC1 : > 50 µM

###

Assay: in vitro
Details: African green monkey
assay-readout: CC50

In the examples that follow, each entry is paired with its recorded CC50.
Documented CC50 of NC(=O)c1ncn([C@@H]2O[C@H](CO)[C@@H](O)[C@H]2O)n1 [Ribavirin, ribavirin, reference compound] : > 250 µM

Documented CC50 of C#Cc1cccc(Nc2ncnc3nc(N4CCN(C)CC4)ncc23)c1 : > 50 µM

Documented CC50 of C#Cc1cccc(Nc2ncnc3nc(NCCN(CC)CC)ncc23)c1 : > 50 µM

Documented CC50 of CN(C)CCNc1ncc2c(Nc3cccc4c3CCC4)ncnc2n1 : > 50 µM

Note: attention shifts to another entry.
Documented CC50 of C#Cc1cccc(Nc2ncnc3cc(OCCOC)c(OCCO)cc23)c1 [OSI-420, reference compound] : > 100 µM

###

Tested on: DND-41 (acute lymphoblastic leukemia)
Experiment: MTS proliferation assay, DND-41
Details: Homo sapiens, DND41, 72 h, read-out: Anti-Proliferative Activity (IC50) DND-41
Catalogue of compounds with associated pIC50
# pIC50: negative log10 of molar concentration; output just the value

Documented pIC50 of CN(C)CCNc1ncc2c(Nc3cccc4c3CCCC4)ncnc2n1 [Compound 7a] : 4.24

Documented pIC50 of CC#CC(=O)Nc1ccc2ncnc(Nc3cccc(Br)c3)c2c1 [CL-387785, reference compound] : 6.05

Documented pIC50 of C#Cc1cccc(Nc2ncnc3nc(NCCN(CC)CC)ncc23)c1 [Compound 7i] : 4.20

###

System: influenza A/H1N1 (A/Ned/378/05)
Test: Antiviral CPE reduction assay, influenza A/H1N1 in MDCK cells
Assay type: cell-based, influenza A virus
Settings: MDCK cells; CPE reduction, MTS; mean ± SD of two or three independent experiments; read-out: Antiviral Activity (EC50) Influenza H1N1
pEC50: −log10 of the molar value.
assay-readout: pEC50

Documented pEC50 of C=CC(=O)Nc1cccc(Nc2nc(Nc3ccc(NC4CN(CCF)C4)cc3OC)ncc2C(F)(F)F)c1 [CNX-2006, reference compound] : < 4.00

###

Catalogue of compounds with associated melting point
Just the number please, in °C, no unit attached.

In the examples that follow, each entry is paired with its recorded melting point.
Documented melting point of CN(C)CCNc1ncc2c(Nc3cccc4c3CCC4)ncnc2n1 : 180.9

Documented melting point of c1cc2c(c(Nc3ncnc4nc(NC5CC5)ncc34)c1)CCCC2 : 189

Documented melting point of c1cncc(Nc2ncnc3nc(NC4CC4)ncc23)c1 : 243

Documented melting point of C#Cc1cccc(Nc2ncnc3nc(N4CCN(C)CC4)ncc23)c1 : 290

Documented melting point of CCN(CC)CCNc1ncc2c(Nc3cccc4c3CCCC4)ncnc2n1 : 181.3

New cases:
Documented melting point of c1cc2c(c(Nc3ncnc4nc(NC5CC5)ncc34)c1)CCC2 : 290

Documented melting point of CN(C)CCNc1ncc2c(Nc3cccc4c3CCCC4)ncnc2n1 : 176.3

Documented melting point of C#Cc1cccc(Nc2ncnc3nc(NC4CC4)ncc23)c1 : 296

Documented melting point of CCN(CC)CCNc1ncc2c(Nc3cccc4c3CCC4)ncnc2n1 : 172.9
